Data credit: patent US20180051079A1

molecular target: T1, CD16A F158 (UniProt P08637 17-208, limits assumed); assay: assay not named in Table 4
T1 construct: Only the name and allotype are printed; also called FcγRIIIA
T1 sequence (P08637 17-208 limits assumed): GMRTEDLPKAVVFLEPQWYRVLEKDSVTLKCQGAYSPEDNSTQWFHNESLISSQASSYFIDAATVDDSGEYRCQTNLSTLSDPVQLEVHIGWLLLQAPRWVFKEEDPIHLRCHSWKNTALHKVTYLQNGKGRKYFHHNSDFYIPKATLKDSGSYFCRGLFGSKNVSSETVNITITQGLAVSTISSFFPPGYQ
Let's look at some binders and their measured binding relative to wild-type Fc.
Measurement Type: binding relative to wild-type Fc

Binder	Numeric Readout
Fc variant F243L D270E G316D R416G (other, UniProt P01857-1 104-330, looked up, domain: Fc) DKTHTCPPCPAPELLGGPSVFLLPPKPKDTLMISRTPEVTCVVVDVSHEEPEVKFNWYVDGVEVHNAKTKPREEQYNSTYRVVSVLTVLHQDWLNDKEYKCKVSNKALPAPIEKTISKAKGQPREPQVYTLPPSRDELTKNQVSLTCLVKGFYPSDIAVEWESNGQPENNYKTTPPVLDSDGSFFLYSKLTVDKSGWQQGNVFSCSVMHEALHNHYTQKSLSLSPGK	1.34
Fc variant F243L D270E P396L Q419H (other, UniProt P01857-1 104-330, looked up, domain: Fc) DKTHTCPPCPAPELLGGPSVFLLPPKPKDTLMISRTPEVTCVVVDVSHEEPEVKFNWYVDGVEVHNAKTKPREEQYNSTYRVVSVLTVLHQDWLNGKEYKCKVSNKALPAPIEKTISKAKGQPREPQVYTLPPSRDELTKNQVSLTCLVKGFYPSDIAVEWESNGQPENNYKTTPLVLDSDGSFFLYSKLTVDKSRWQHGNVFSCSVMHEALHNHYTQKSLSLSPGK	1.15
Fc variant F243L P247L D270E N421K (other, UniProt P01857-1 104-330, looked up, domain: Fc) DKTHTCPPCPAPELLGGPSVFLLPPKLKDTLMISRTPEVTCVVVDVSHEEPEVKFNWYVDGVEVHNAKTKPREEQYNSTYRVVSVLTVLHQDWLNGKEYKCKVSNKALPAPIEKTISKAKGQPREPQVYTLPPSRDELTKNQVSLTCLVKGFYPSDIAVEWESNGQPENNYKTTPPVLDSDGSFFLYSKLTVDKSRWQQGKVFSCSVMHEALHNHYTQKSLSLSPGK	3.45
